tgt: M2 muscarinic receptor (Homo sapiens)
Sequence (P08172 whole entry): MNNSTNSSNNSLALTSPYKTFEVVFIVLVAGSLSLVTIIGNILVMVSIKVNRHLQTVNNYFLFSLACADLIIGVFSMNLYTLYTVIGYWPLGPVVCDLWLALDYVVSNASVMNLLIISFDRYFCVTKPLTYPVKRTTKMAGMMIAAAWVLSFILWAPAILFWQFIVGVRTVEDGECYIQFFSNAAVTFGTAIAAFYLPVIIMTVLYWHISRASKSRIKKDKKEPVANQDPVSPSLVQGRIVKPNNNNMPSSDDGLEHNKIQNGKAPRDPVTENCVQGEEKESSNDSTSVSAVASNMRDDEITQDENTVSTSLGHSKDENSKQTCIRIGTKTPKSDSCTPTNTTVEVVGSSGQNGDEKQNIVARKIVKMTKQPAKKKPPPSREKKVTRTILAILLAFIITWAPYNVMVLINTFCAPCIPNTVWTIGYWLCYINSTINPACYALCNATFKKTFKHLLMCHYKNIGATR
experiment description: accumulation of IPX, M2 CHO cells (M2Gq)
Format: cell-based
Design: host or cells: CHO cells, stably transfected
metric: Kd

Using the record for O=C1CCCN1CC#CCN1CCCC1 [oxotremorine, reference compound] , state its measured Kd.
251 nM

---

tgt: UniProt P08173
Sequence (P08173 1-479): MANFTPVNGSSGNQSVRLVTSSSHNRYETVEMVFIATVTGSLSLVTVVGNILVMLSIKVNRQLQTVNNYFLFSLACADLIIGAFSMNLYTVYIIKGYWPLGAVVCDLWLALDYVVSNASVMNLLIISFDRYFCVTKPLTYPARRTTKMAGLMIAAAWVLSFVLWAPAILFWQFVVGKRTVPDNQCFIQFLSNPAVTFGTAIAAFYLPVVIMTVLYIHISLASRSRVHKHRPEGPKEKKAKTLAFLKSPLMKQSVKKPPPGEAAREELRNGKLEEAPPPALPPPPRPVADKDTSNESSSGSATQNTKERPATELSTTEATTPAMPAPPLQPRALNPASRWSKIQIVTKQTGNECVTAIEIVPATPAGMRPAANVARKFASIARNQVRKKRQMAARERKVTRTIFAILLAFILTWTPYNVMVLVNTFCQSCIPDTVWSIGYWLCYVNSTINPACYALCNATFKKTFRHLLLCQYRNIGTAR
experiment description: stimulation of cAMP, M4 CHO cells (M4Gs)
Assay type: cell-based
Design: host or cells: CHO cells, stably transfected
metric: pEC50
Answers are plain numbers, as −log10 of the molar value.

Please give measured pEC50 of the following entry: O=C1CCCN1CC#CCN1CCCC1 [oxotremorine, reference compound]
5.56

---

tgt: M4 muscarinic receptor (Homo sapiens, UniProt P08173)
experiment description: [3H]NMS competition binding, M4 CHO membranes
Design: host or cells: CHO cells, stably transfected
test parameters: Inhibition constants (KI) as negative logarithms, M4, low site, reference agonists, low affinity site
metric: pKi
Answers are plain numbers, as −log10 of the molar value.

Indicate its recorded pKi; the compound in question is O=C1CCCN1CC#CCN1CCCC1 [oxotremorine, reference compound]
6.21

---

tgt: M4 muscarinic receptor (Homo sapiens, UniProt P08173)
experiment description: [3H]NMS competition binding, M4 CHO membranes
Parameters: host or cells: CHO cells, stably transfected
test parameters: at M4 receptors; read-out: Inhibition constants Ki
metric: pKi
Answers are plain numbers, as −log10 of the molar value.

Given `C1=CCN(Cc2cccs2)CC1.Cl` , report its pKi on M4 muscarinic receptor (Homo sapiens, UniProt P08173).
4.27

---

tgt: M3 muscarinic receptor (Homo sapiens, UniProt P20309)
Sequence (P20309 whole entry): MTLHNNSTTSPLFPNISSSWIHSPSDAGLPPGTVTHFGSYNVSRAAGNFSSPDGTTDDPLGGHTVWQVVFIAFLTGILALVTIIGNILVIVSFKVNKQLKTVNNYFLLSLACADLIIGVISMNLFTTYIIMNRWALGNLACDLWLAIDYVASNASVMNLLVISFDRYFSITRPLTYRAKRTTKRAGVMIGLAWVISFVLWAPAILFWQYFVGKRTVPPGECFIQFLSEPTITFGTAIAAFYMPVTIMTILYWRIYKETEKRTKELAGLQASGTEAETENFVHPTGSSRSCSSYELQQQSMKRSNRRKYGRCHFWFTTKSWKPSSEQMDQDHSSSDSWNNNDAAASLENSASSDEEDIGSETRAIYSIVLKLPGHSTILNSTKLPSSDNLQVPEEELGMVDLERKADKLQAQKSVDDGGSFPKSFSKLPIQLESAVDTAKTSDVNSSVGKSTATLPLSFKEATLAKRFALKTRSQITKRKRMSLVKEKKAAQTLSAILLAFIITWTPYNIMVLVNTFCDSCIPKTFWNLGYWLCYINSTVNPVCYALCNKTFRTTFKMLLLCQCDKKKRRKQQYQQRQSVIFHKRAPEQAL
experiment description: accumulation of IPX, M3 CHO cells (M3Gq)
Format: cell-based
Design: host or cells: CHO cells, stably transfected
test parameters: M3 (↑IPX), preferential response, Table 7
metric: E′MAX (fold over basal)
One number for each entry, in fold over basal.

>  <molecule>
Brc1ccc(CN2CC=CCC2)s1.Cl

>  <unit text>
fold over basal

>  <reported>
1.8

$$$$
>  <molecule>
C[N+]1(Cc2ccc(Cl)s2)CC=CCC1.[I-] (stereo not shown)

>  <unit text>
fold over basal

>  <reported>
1.8

$$$$
>  <molecule>
C[N+]1(Cc2ccc(Br)s2)CC=CCC1.[I-] (stereo not shown)

>  <unit text>
fold over basal

>  <reported>
1.6

$$$$

Items follow; give E′MAX for each.
1. Cc1ccc(CN2CC=CCC2)s1.Cl
2. C1=CCN(Cc2cccs2)CC1.Cl
3. C[N+]1(Cc2cccs2)CC=CCC1.[I-] (stereo not shown)
4. Cc1ccc(C[N+]2(C)CC=CCC2)s1.[I-] (stereo not shown)

2.0
2.5
3.0
4.4
